Known Ki of a selection of binders
- targetSystem: bovine trypsin (bovine, UniProt P00760 24-246)
- Sequence (P00760 24-246): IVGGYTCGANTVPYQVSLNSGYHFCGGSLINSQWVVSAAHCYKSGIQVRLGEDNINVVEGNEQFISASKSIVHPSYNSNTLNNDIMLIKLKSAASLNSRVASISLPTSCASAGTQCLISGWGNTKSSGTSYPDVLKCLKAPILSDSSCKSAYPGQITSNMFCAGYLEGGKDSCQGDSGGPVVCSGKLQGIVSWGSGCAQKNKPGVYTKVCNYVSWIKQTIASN
- assayComment: trypsin inhibition, BApNA substrate
Bridge positions count the residues as written; N and C are the ends. Square brackets hold non-standard residues; d marks the D form. Ends that are not written are not given here. hCys = N[C@@H](CCS)C(=O)O
Response body: numeric value in nM, unit text excluded.

Lookup: Give Ki for [hCys]GRATKSIPPIAF[hCys] (disulfide 1-14) [BT29]
Found: 2260

Lookup: Find the measured Ki of CGRATKSIPPICFPD (disulfide 1-12 (inferred)) [BT5] and report it.
Found: 30

Lookup: Indicate the recorded Ki value for this binder: RCTRSIPPHCW (disulfide 2-10 (inferred)) [BT61]
Found: 190

Lookup: Identify measured Ki associated with CGTATKSIPPICN (disulfide 1-12 (inferred)) [BT24]
Found: 7220

Lookup: State its Ki: CGRYTKSIPPICF (disulfide 1-12 (inferred)) [BT53]
Found: 30
